B1: library; numbered along this chain (parent)
chain: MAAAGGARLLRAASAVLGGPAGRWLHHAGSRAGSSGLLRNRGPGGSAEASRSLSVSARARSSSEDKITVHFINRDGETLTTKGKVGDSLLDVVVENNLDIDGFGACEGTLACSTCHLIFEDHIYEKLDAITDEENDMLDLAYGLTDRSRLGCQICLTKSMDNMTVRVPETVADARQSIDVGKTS

# Variants of: B1
# TEST SUMMARY: scaled log2 fold change in cell abundance, elesclomol vs control (0 = silent mean, 1 = nonsense mean) (scaled log2 ratio); higher = higher viability under elesclomol (loss of FDX1 cuproptosis function);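 also: variant abundance is its share of total variant reads in each endpoint sample, from next-generation sequencing of the integrated ORF PCR-amplified out of genomic DNA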
# CONDITION DETAILS: with HEK293T FDX1 KO; elesclomol 40 nM; glucose 10 mM; 11 days
ASSAY METRIC: scaled log2 fold change

MUTATION SPEC	VALUE MEASURED
Q153S	0.372
V165G	0.411
V165F	0.286
K84G	-0.00112
L25P	1.23
G5V	-0.396
K66T	0.851
S184E	1.03
I130Q	-0.458
L89C	0.257
L150T	-0.16
A111T	-0.0821
G151T	0.96
D65A	-0.237
A2M	0.0994
I130M	-0.481
M163I	0.861
G151D	1.19
S30G	0.208
S35R	-0.669
E125T	0.0298
C152T	1.22
G104K	0.468
D87Y	-0.0378
N97C	-0.308
D173R	0.613
R58Y	-0.258
R175F	0.0272
I178V	0.0591
A105D	0.0751
T131C	-0.521
L90N	-0.049
D136Y	-0.0361
G102Y	-0.0235
E107C	0.444
R74C	0.937
S88D	0.11
A49W	-0.679
D121R	1.32
K126V	0.807
K66F	-0.676
R39M	0.344
D87E	0.0766
S63N	-0.00891
M137S	-0.153
G83L	1.06
